B1: CPEB3 Ribozyme (parent)
chain: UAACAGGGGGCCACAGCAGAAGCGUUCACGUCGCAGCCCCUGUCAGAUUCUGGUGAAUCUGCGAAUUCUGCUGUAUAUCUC

Variants of: B1
Experiment: self-cleavage, relative activity (ratio to wild type); higher = more cleavage; in vitro, sequencing
Reported self-cleavage values are given for each entry in this list.

sequence variant: U60A A65U
self-cleavage: 0.21

sequence variant: G7C U54A
self-cleavage: 0.22

sequence variant: C4G A77G
self-cleavage: 1.19

sequence variant: U41C G61U
self-cleavage: 0.62
